Measured Cytotoxicity Index (number of cells) of individual entries
Test system: L 929 cells
Test: Cytotoxicity on cell cultures (Table 2)
Conditions: culture time 0 hr; 0.5 × 10^-5 M; control 40

Observe how each entry below is paired with its result.
[[record]]
chemical_string = "O=[N+]([O-])c1csc([N+](=O)[O-])c1"
result = "46 number of cells"

[[record]]
chemical_string = "O=[N+]([O-])c1cc([N+](=O)[O-])c(I)s1"
result = "36 number of cells"

[[record]]
chemical_string = "O=[N+]([O-])c1ccc(Oc2sccc2[N+](=O)[O-])cc1"
result = "56 number of cells"


Then this compound:
Form field Cytotoxicity Index (number of cells) for item "CS(=O)(=O)c1cc([N+](=O)[O-])c(I)s1" on L 929 cells: 37 number of cells
